Biological target: CDK2/CycE (Homo sapiens)
Construct: GST; purchased ProQinase GmbH (Freiburg, Germany); host or cells: insect cells (Sf9)
Experiment: CDK2/CycE high ATP kinase assay (TR-FRET)
Format: biochemical
Conditions: 2 mM ATP, Method 2b
measured endpoint: IC50 (nM)

compound="CS(=N)(=O)Cc1cc2cc(c1)OCCCCCNc1cc(ccc1F)-c1nc(ncc1F)N2 (racemic)" target_or_test_system="CDK2/CycE (Homo sapiens)" recorded_result=357

[P] CS(=N)(=O)Cc1cc2cc(c1)OCCCCNc1cc(ccc1F)-c1nc(ncc1F)N2 (single isomer, unassigned) [Example 9]
[Q] CS(=N)(=O)Cc1cc2nc(c1)OCCCCNc1cc(ccc1F)-c1cc(ncc1F)N2 (racemic)
Prompt: Thinking about recorded IC50 values, which is higher, P or Q ? Provide the label of your selected option as the answer.
Completion: P
